Assign Kd to each entry below.
target: T1, human SIRP-α v1 D1 domain (human, UniProt P78324 31-149); assay: SPR, antibody immobilised on GLC chip
T1 construct: also called human v1; human α v1
T1 sequence (P78324 31-149 limits assumed): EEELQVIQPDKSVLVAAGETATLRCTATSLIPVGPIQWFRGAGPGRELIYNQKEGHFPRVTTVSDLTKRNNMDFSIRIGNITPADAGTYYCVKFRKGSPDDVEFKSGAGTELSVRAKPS
Give bare numbers, in nM.

Okay, here is my list. What is Kd for each of these?
1. antibody 136 variant MutRv_I2T/mut_V34M (antibody, human IgG1, V domains shown, Human IgG1 with L234A/L235A/G237A/N297A; Labels are light chain/heavy chain) VH: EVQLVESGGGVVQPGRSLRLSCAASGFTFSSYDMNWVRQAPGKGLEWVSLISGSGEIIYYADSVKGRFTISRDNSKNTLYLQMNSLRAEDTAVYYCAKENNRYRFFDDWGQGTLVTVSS VL: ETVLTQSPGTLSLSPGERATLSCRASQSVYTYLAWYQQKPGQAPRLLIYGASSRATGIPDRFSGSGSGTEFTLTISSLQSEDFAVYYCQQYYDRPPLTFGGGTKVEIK
2. antibody 136 variant MutRv_S22T/mut (antibody, human IgG1, V domains shown, Human IgG1 with L234A/L235A/G237A/N297A; Labels are light chain/heavy chain) VH: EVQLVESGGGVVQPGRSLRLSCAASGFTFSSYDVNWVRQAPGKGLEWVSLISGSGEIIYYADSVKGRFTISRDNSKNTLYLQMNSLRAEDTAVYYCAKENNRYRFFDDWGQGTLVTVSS VL: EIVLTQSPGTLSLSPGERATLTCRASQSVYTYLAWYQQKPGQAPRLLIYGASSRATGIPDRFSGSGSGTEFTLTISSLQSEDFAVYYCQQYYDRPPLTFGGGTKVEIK
3. antibody 136 variant MutRv_S12T/mut (antibody, human IgG1, V domains shown, Human IgG1 with L234A/L235A/G237A/N297A; Labels are light chain/heavy chain) VH: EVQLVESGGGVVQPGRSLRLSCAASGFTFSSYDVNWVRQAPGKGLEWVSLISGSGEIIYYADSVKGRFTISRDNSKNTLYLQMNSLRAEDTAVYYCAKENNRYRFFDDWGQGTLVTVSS VL: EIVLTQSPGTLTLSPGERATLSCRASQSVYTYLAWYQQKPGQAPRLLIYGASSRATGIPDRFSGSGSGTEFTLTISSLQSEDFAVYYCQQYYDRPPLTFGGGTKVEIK

1. 0.551
2. 4.99
3. 4.88
